# System: PPARg:RXRa DBDmut IVT, anti-RXR (DBD mutation: RXRa K156A/R161A, NR concentration 270 nM, RXRa partner concentration 90 nM)
# Assay Text: PBM binding z-score (relative to random genomic background probes); higher = stronger binding; sequences stand for … in GC…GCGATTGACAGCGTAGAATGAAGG

Primary Sequence: CTCGAAAGGTCGTGCTCAGGTGAGTAAACCAAAC
PBM binding z-score: 0.815

Primary Sequence: AGCATGAGGTTAAGATCAGGGAAACAGAATACAT
PBM binding z-score: 0.0322

Primary Sequence: CCTCGGAGGACAACAGGAGGTCACAGCTGCCAGA
PBM binding z-score: 0.582

Primary Sequence: CCTATTAGTTGACCATAAGGGCAATCGAAGCTCG
PBM binding z-score: 0.549

Primary Sequence: TCAGACAGGTGAAGGTGACTCAGGTACGCAGTCG
PBM binding z-score: 2.42

Primary Sequence: ATATGTAGGCTACATCCGGGTCATTCAGGCTATG
PBM binding z-score: 5.71

Primary Sequence: CGAACGAGGGCGTGAGTTGATAGCAAATGCCGAT
PBM binding z-score: 0.665

Primary Sequence: ACTAGTTGGTCAGCTGAGGTCACCCACAATTCGG
PBM binding z-score: 1.12

Primary Sequence: CATACAGGGTCAGCTAGGCCAAAGTAGGGACGGC
PBM binding z-score: 0.935

Primary Sequence: AGTCAAAGTTCAGGACGAGGTAACGAAAAGCACG
PBM binding z-score: 0.0438

Primary Sequence: TCATCTAGGTAAAGGTGAAAGTCGAACGATATGA
PBM binding z-score: 4.03

Primary Sequence: CCTGCTAGGTCAATGGCCAGCTAAAGCAGCTCGC
PBM binding z-score: 4.15

---

# Test system: RARg:RXRa (NR concentration 270 nM, RXRa partner concentration 90 nM)
# Assay Text: PBM binding z-score (relative to random genomic background probes); higher = stronger binding; sequences stand for … in GC…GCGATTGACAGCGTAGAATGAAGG
Quantity Measured: PBM binding z-score

Primary Sequence: TCATATAGGTAAATGCTAGGTGTAAGTCCGATCT
Quantity Measured: PBM binding z-score
Result: 0.43
//
Primary Sequence: CCTAGTTGGTCAAGGACACACACGCTATAGGTAC
Quantity Measured: PBM binding z-score
Result: 1.19
//
Primary Sequence: CCTCGGAGGACAACAGGAGGTCAGAGCCGCCAGA
Quantity Measured: PBM binding z-score
Result: 3.51
//
Primary Sequence: ATACCAAGGTGATCGTGAGGTCGTTGGTACTAAC
Quantity Measured: PBM binding z-score
Result: 2.1
//
Primary Sequence: CCTAGCAGGGCAATCTGGGTCACTCAAGGCTTGA
Quantity Measured: PBM binding z-score
Result: 1.56
//
Primary Sequence: CCGACTGGGGCATAAGGTTACCTTAAGCCAGCCC
Quantity Measured: PBM binding z-score
Result: 1.26
//
Primary Sequence: TCTAGTTGGTCAAAGGTCAGACACTCGAAATGCG
Quantity Measured: PBM binding z-score
Result: 6.12
//
Primary Sequence: ATTACAGGGTCATCGTAGGCCAGAGTACGCACAG
Quantity Measured: PBM binding z-score
Result: 5.86
//
Primary Sequence: AGTCAAAGTTCAGGACGAGGTAACGTGAAGCACG
Quantity Measured: PBM binding z-score
Result: 4.86
//
Primary Sequence: ACTATTAGTTGACCTAGGGCAACCGATACGACGC
Quantity Measured: PBM binding z-score
Result: 2.88
//
Primary Sequence: CGTCCAAGGACAAAGGTCAGTGAAGAGATGACGG
Quantity Measured: PBM binding z-score
Result: 5.3
//
Primary Sequence: ACTATTAGTTGACTTAGGGTAACCGATACGACGC
Quantity Measured: PBM binding z-score
Result: 0.744
//
Primary Sequence: TCTCGGAGGACACGAAGGGTCAGAGCTCGACATC
Quantity Measured: PBM binding z-score
Result: 3.26
//
Primary Sequence: AATACAGGGTCTTCGTAGGCCAGAGTACGCACAG
Quantity Measured: PBM binding z-score
Result: 0.222
//
Primary Sequence: CAGCCTAGGTCACGGCCAGTATAGGAGGAACGTT
Quantity Measured: PBM binding z-score
Result: 5.27
//
Primary Sequence: CGAACGAGGGCATGTGTTGATAGCAAATGCCGAT
Quantity Measured: PBM binding z-score
Result: 1.08
//
Primary Sequence: TCGAGTAGGTTAGTCGCGGCATTCAGCCAACATA
Quantity Measured: PBM binding z-score
Result: -0.336
//
Primary Sequence: AGTCTAAGTTCATCTAGGTAACGTAAGATATGCT
Quantity Measured: PBM binding z-score
Result: 3.58
//
Primary Sequence: TGAATGCGGTTATAAGATCAGGGAACGTTGCAAA
Quantity Measured: PBM binding z-score
Result: 0.175
//
Primary Sequence: AGAATGAGGTTATTAACATCAGGGAATTGCGGTC
Quantity Measured: PBM binding z-score
Result: 1.11
//
Primary Sequence: ATATGTAGGTTACATCCGGGTGATTCAGGCTATG
Quantity Measured: PBM binding z-score
Result: 1.19
//
Primary Sequence: AATACAGGGTCACTATGCCAGAGTAGGTACGAAT
Quantity Measured: PBM binding z-score
Result: 4.76
//
Primary Sequence: TCTGCTCGGTCAACGATGGTCAGCTAATCTGCTA
Quantity Measured: PBM binding z-score
Result: 1.41
//
Primary Sequence: TCATATAGGTAAAACGTGAAAGTCGGTGTGGTAA
Quantity Measured: PBM binding z-score
Result: 0.237
//
Primary Sequence: CCTACTGGGCCAAAAAGGTCATCGATGCCGATAA
Quantity Measured: PBM binding z-score
Result: 5.18
//
Primary Sequence: GCTATTAGTTGAAGGGGCAACCGAATGATTCTCG
Quantity Measured: PBM binding z-score
Result: 0.206
